The reported numbers originate from ChEMBL document CHEMBL1135178.

System: Plasmodium falciparum
testSummary: Antimalarial activity against Plasmodium falciparum NF54
Type: functional
observedProperty: log10 of MIC (log10 of the value in µg/mL)
The common logarithm of MIC in µg/mL is what is listed.

# example entries with known answers
Problem: Write down log10 of MIC measured for item C=C(C)C(O)CCC(=C)C1COC2(CCCCC2)OO1 (stereo not given)
Result: -0.90

Problem: Write down log10 of MIC measured for item CCN(CC)CCCC(C)Nc1ccnc2cc(Cl)ccc12 (stereo not given)
Result: -1.40

Problem: Write down log10 of MIC measured for item C=C(C)C(O)CCC(=C)C1COC2(CCCC2)OO1 (stereo not given)
Result: -0.90

Problem: Write down log10 of MIC measured for item C=C(C)C(O)CCC(=C)C1COC(C)(C)OO1 (stereo not given)
Result: -0.30

Problem: Write down log10 of MIC measured for item C=C(C)C(O)CCC(=C)C1COC2(OO1)C1CC3CC(C1)CC2C3 (stereo not given)
Result: -1.51

---
Problem: Write down log10 of MIC measured for item C=C(CCCO)C1COC2(CCCCC2)OO1 (stereo not given)
Result: 0.00

Problem: Write down log10 of MIC measured for item C=C(CCCO)C1COC(C)(C)OO1 (stereo not given)
Result: 0.00

Problem: Write down log10 of MIC measured for item "C[C@@H]1CC[C@H]2[C@@H](C)C(=O)O[C@@H]3O[C@@]4(C)CC[C@@H]1[C@]32OO4"
Result: -1.51

Problem: Write down log10 of MIC measured for item C=C(CCCO)C1COC2(OO1)C1CC3CC(C1)CC2C3 (stereo not given)
Result: -0.90

Problem: Write down log10 of MIC measured for item C=C(CCCO)C1COC2(CCCC2)OO1 (stereo not given)
Result: -0.60
